Listed molecules paired with reported RP-LC retention time
Measurement Description: gradient 5% acetonitrile 3 min, to 50% in 2 min, to 85% in 15 min, held 3 min, 100 µL/min
Particulars: column: Zorbax Extend-C18 2.1 x 50 mm; eluents: water / acetonitrile, 0.1% formic acid
Recorded Endpoint: RP-LC retention time (s)

- Molecule: "CSc1ccc(CNC(=O)C2c3ccccc3CCN2C(C)=O)cc1 (stereo not drawn)"
  Unit Spec: "s"
  Quantitative Result: 790
- Molecule: "O=C(NCc1ccco1)C1CCN(S(=O)(=O)c2cc(C(=O)N3CCCCCC3)cs2)CC1"
  Unit Spec: "s"
  Quantitative Result: 815
- Molecule: "CCOC(=O)C1C(=O)C(=O)N(C(C)C)C1C(=O)OCC (stereo not drawn)"
  Unit Spec: "s"
  Quantitative Result: 782

---

Measurement Description: gradient 5% acetonitrile 3 min, to 50% in 2 min, to 85% in 15 min, held 3 min, 100 µL/min
Particulars: column: Zorbax Extend-C18 2.1 x 50 mm; eluents: water / acetonitrile, 0.1% formic acid

- Compound: "CN1C(=O)C(C)(C(=O)Nc2ccccc2F)Oc2cccnc21 (stereo not drawn)"
  Unit Spec: "s"
  RP-LC retention time: 780
- Compound: "O=S(=O)(c1ccc2c(c1)OCCO2)N1CCC[C@H]1c1nc(-c2ccc(F)cc2)n[nH]1"
  Unit Spec: "s"
  RP-LC retention time: 799
- Compound: "Cc1cc(C)cc(C(=O)N2CCC(n3c(-c4ccoc4)nc4cccnc43)C2)c1 (stereo not drawn)"
  Unit Spec: "s"
  RP-LC retention time: 804

---

Listed molecules paired with reported RP-LC retention time
Measurement Description: gradient 5% acetonitrile 3 min, to 50% in 2 min, to 85% in 15 min, held 3 min, 100 µL/min
Particulars: column: Zorbax Extend-C18 2.1 x 50 mm; eluents: water / acetonitrile, 0.1% formic acid

- Molecule: "COc1ccc2[nH]cc(CCNC(=O)c3c(-c4ccccn4)noc3C)c2c1"
  RP-LC retention time [s]: 846
- Molecule: "CCN1CCN(CCNC(=O)Cn2c(=O)c3cccn3c3ccc(F)cc32)CC1"
  RP-LC retention time [s]: 589
- Molecule: "O=C(CCC(=O)N1CCOc2ccc(Cl)cc21)N1CCN(c2ccccn2)CC1"
  RP-LC retention time [s]: 656
- Molecule: "CC1(C(=O)NC2CCCCCC2)Cn2c(cc3occc32)C(=O)N1Cc1ccccn1 (stereo not drawn)"
  RP-LC retention time [s]: 766
- Molecule: "COc1ccccc1NS(=O)(=O)c1c[nH]c2ncccc12"
  RP-LC retention time [s]: 706
- Molecule: "COc1ccc(C)cc1NC(=O)Cn1nc2cc(-c3ccccn3)nc(C)n2c1=O"
  RP-LC retention time [s]: 804
- Molecule: "CN(CCc1noc(-c2ccc(F)cc2)n1)C(=O)NCCc1ccccc1"
  RP-LC retention time [s]: 909
- Molecule: "Cc1cc(N2CCC(NC(=O)Nc3ccc(F)cc3)C2=O)ccc1F (stereo not drawn)"
  RP-LC retention time [s]: 849
- Molecule: "COc1ccc(NC(=O)C2CCCN(c3ncnc4c3nc3n4CCCCC3)C2)cc1Cl (stereo not drawn)"
  RP-LC retention time [s]: 828
- Molecule: "Cc1ccc(Nc2c(-c3cccc(Cl)c3)nc3cccc(C)n23)cc1"
  RP-LC retention time [s]: 836
- Molecule: "O=c1c2ccccc2c(-c2nc(-c3cccnc3)no2)nn1-c1ccc(F)cc1"
  RP-LC retention time [s]: 998
- Molecule: "O=C(c1ccco1)N1CCN(c2ncnc3sc(-c4ccccc4)cc23)CC1"
  RP-LC retention time [s]: 840
- Molecule: "Cc1ccc(S(=O)(=O)Nc2ccc3c(c2)nc(-c2ccc(C(=O)NC(C)C)cc2)n3C)cc1"
  RP-LC retention time [s]: 695
